- assayed_target: Ubiquitin-conjugating enzyme E2 N (Homo sapiens);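 also: Dose-response confirmation in a TR-FRET assay detecting UBC13-driven polyubiquitin chain formation, inhibition measured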
- Sequence (P61088 whole entry): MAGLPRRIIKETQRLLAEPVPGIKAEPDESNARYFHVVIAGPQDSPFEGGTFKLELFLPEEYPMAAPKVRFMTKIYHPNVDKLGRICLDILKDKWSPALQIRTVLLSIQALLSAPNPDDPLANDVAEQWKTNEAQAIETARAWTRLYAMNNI
- Type: functional
Active and inactive are the calls of the source.
IC50 by entry:

Study these solved cases before continuing.
>>> print(df.to_string())
                                smiles_data                            assayed_target  reported_metric              result
0  CN1CCN(C(=O)CCN2C(=O)/C(=C/c3ccccc3Cl)SC2=S)CC1  Ubiquitin-conjugating enzyme E2 N (Homo sapiens)             IC50    17.8 µM (active)
1  CC(C)(C)c1ccc(C(=O)NCCCN2CCN(CCCNC(=O)c3ccc(C(C)(C)C)cc3)CC2)cc1  Ubiquitin-conjugating enzyme E2 N (Homo sapiens)             IC50  > 20 µM (inactive)
2  COc1ccccc1NC(=O)CN1CCC(n2nnc3cc(F)ccc32)CC1  Ubiquitin-conjugating enzyme E2 N (Homo sapiens)             IC50    15.4 µM (active)
3              CCCCCCCSc1cc(OC)c(CCNC)cc1OC  Ubiquitin-conjugating enzyme E2 N (Homo sapiens)             IC50  > 20 µM (inactive)

Turning now to a further compound:
# input Give the reported value of IC50 for this record: N=C(N)Nc1ccc2[nH]c3c(c2c1)C[C@@]1(O)[C@H]2Cc4ccc(O)c5c4[C@@]1(CCN2CC1CC1)[C@H]3O5
# output > 20 µM (inactive)
